Values were extracted from PubChem BioAssay.

assay: antimalarial activity against Dd2 strain (AID 2302);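 note: 0% = DMSO untreated growth and 100% = chloroquine plus artemisinin killed control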; details: P. falciparum Dd2 in RBCs, LDH growth readout, 72 h; at 2 µM; hits give high values
Active and inactive are the calls of the source.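 Rule for the calls: active = growth inhibition above 50% at the single 2 µM test dose, taken to imply half-maximal potency below 2 µM; inactive = the rest.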
reportedEndpoint: growth inhibition

Request the reported growth inhibition associated with CCCCCN1CCCN(Cc2cccc(NC(=O)c3ccc4ccccc4c3)c2)CC1
16% (inactive)

# growth inhibition lookup, item CC(C)N1CCC(N(Cc2ccc(-c3ccc(Cl)cc3)cc2)C(=O)Cn2c(CCc3cccc(F)c3F)cc(=O)c3ccccc32)CC1
73% (active)

For the compound shown here, CCCNCc1ccc(-c2ccc(CN(CC3CCCO3)C(=O)C3CC(=O)c4ccccc43)cc2)nc1 (centres undefined) , give the reported growth inhibition.
65% (active)

Suppose we examine the compound O=C(NC(CCCN1CCC(c2ccccc2)CC1)c1ccc(Cl)c(Cl)c1)c1cc(C(F)(F)F)cc(C(F)(F)F)c1 (centres undefined) ; what growth inhibition value has been reported?
87% (active)

###

assay: human hepatoma cell viability loss – ATP luminescence, cytotoxicity control for P. falciparum antimalarial project, primary screen (AID 2303); conditions: HepG2 viability, 24-48 h, at 10 µM, hits give high values;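 note: 0% = DMSO wells and 100% = digitonin-killed cells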
Values of inhibition strictly less than 20% map to 1.0, and values of at least 20% map to 0.0.

Determine whether this compound shows inhibition lower than 20% (ties excluded): CC(C)CCN1CCCN(Cc2ccc(C(=O)Nc3ccc(F)c(F)c3)cc2)CC1
0.0

In plain terms, does FC(F)(F)c1ccccc1OCc1cc(-c2ccncc2)c(COc2ccccc2C(F)(F)F)cc1C1=CCNCC1 come in under 20% for inhibition?
0.0

Does the reported inhibition of the following compound sit strictly below 20%? O=C(N[C@@H](Cc1ccccc1)C(=O)NC1CCCCC1)c1ccc(O)c(-c2ccc(Cl)c(Cl)c2)c1
1.0

Identify whether the compound O=C(Nc1ccccc1)N(Cc1cccc(-c2ccc(CNCCc3ccccc3)cc2)c1)C1CCN(Cc2ccccc2)CC1 records inhibition below 20%.
0.0

Could you please tell me whether inhibition recorded for O=C(/C=C/c1ccc(Cl)c(Cl)c1)NCCCCCN1CCC(NC(=O)Nc2ccc(Cl)c(C(F)(F)F)c2)CC1 is less than 20%?
0.0

I wonder whether CCCCN1CCN(CCCCNc2c3ccccc3nc3ccccc23)CC1 has inhibition below 20%. Can you tell?
0.0

Field: below-cutoff. Rule: recorded inhibition strictly less than 20%. Subject: O=C(Nc1cccc(-c2nn3ccccc3c2-c2ccnc(Nc3cccc(C(F)(F)F)c3)n2)c1)c1c(F)cccc1F
0.0

Hello, is inhibition of the following compound strictly smaller than 20%? C=C(C)C1CC=C(CN2CCCC(n3ccc4cc(NC(=O)c5ccco5)ccc43)CC2)CC1 (stereo not drawn)
1.0

Please state whether inhibition is below 20% for O=C(Nc1cccc(-c2ccc(-c3nc4ccc(F)cc4[nH]3)s2)c1)c1cccnc1
0.0

Bench note: check whether O=C(Nc1cccc(-c2nc3ccccc3[nH]2)c1)c1ccc(-c2cccc([N+](=O)[O-])c2)o1 shows inhibition below 20%
0.0

Bench note: check whether COc1ccccc1N1CCN(CCCCNC(=O)c2ccc(NC(=O)c3cc(Cl)cc(Cl)c3)cc2)CC1 shows inhibition below 20%
1.0

Is 20% strictly greater than the compound's reported inhibition? compound: Cc1ccc2c(OCCN3CCC(Cc4cc5c(cc4F)OCC(=O)N5)CC3)cc(F)cc2n1
0.0

Please determine if Cc1ccccc1NC(=O)C1CSCN1C(=O)OCc1ccccc1 (stereo not drawn) is below 20% in terms of inhibition.
1.0

Hello, is inhibition of the following compound strictly smaller than 20%? Cc1cc(N[C@@H](Cc2ccccc2)C(=O)NCCOc2ccccc2)nc(NCCOc2ccccc2)n1
1.0

Regarding CC(=O)Nc1ccc2[nH]cc(C3CCN(CC4CCN(C(=O)/C=C/c5ccc(Cl)c(Cl)c5)CC4)CC3)c2n1 , kindly confirm whether its inhibition is beneath 20%.
0.0

Criterion: inhibition strictly below 20%. Is it met by CCCCNC(=O)[C@H](CC1CCCCC1)NC(=O)c1ccc(O)c(-c2ccc(OC)cc2)c1 ?
1.0

State whether 20% exceeds inhibition recorded for COc1ccc(C=NNc2cc(C)nc3ccccc23)cc1OC .
1.0

Please let me know if COc1cc(CNC[C@@H](O)[C@H](Cc2ccccc2)NC(=O)c2cc(C3CCCC3)cc(N3CCCC3=O)c2)cc(OC)c1 shows inhibition below 20%.
1.0
